Experiment: NCI Yeast Anticancer Drug Screen. Data for the sgs1 mgt1 strain (AID 161);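 also: 0% = growth of cultures given vehicle only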
Settings: S. cerevisiae sgs1 mgt1 strain, at 5.0 µM (retest, dose inferred, filed as 0.5), active compounds read high
About 79,000 compounds went through this panel and 15% of them were active in at least one assay; those are over-represented in the sample as a whole.
// values below are reported growth inhibition
Numeric answer only, unit % assumed.

Request: // returns reported growth inhibition for input Nc1nc(N)c(-c2ccc(Cl)c(Cl)c2)c(CCc2ccc(CNC(=O)c3cc(S(=O)(=O)F)ccc3Cl)cc2)n1
Result: -3

Request: // returns reported growth inhibition for input [O-][n+]1onc2ccccc21
Result: 29

Request: // returns reported growth inhibition for input CCCCCCCCC(=O)[O][Hg][c]1ccccc1
Result: 100

###

Experiment: NCI Yeast Anticancer Drug Screen. Data for the rad50 strain (AID 155);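 also: 0% = growth of vehicle-only cultures of the same strain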
Conditions: S. cerevisiae rad50 strain growth inhibition; at 50.0 µM; active compounds read high
Compounds without any hit were thinned out: in the full panel of roughly 79,000, 15% have a hit.
// values below are reported growth inhibition
Numeric answer only, unit % assumed.

Solved entries:
CCC[CH2][Sn]1([CH2]CCC)[O]C(=O)C(C(C)C)N=Cc2ccccc2[O]1 (stereo unspecified)    89.8
CC(C)(c1ccccc1)c1ccc(O)cc1    98
O=C1NC(=S)NC(=O)C1=Cc1ccc([N+](=O)[O-])o1    77.6
COC(=O)CC1(C(=O)O)CC2(Cl)C(Cl)=C(Cl)C1(Cl)C2(Cl)Cl (stereo unspecified)    65.9
Oc1c(Cl)cc(Cl)cc1Cl    86.5

Next molecule, growth inhibition to be filled in.
Request: // returns reported growth inhibition for input CCCOc1ccc(/C=C/[N+](=O)[O-])cc1N
Result: 99.2

###

Test: NCI Yeast Anticancer Drug Screen. Data for the bub3 strain (AID 167)
Conditions: S. cerevisiae bub3 mutant strain, at 50.0 µM
About 79,000 compounds went through this panel and 15% of them were active in at least one assay; those are over-represented in the sample as a whole. Activity calls are given as the source filed them. Rule as the data show it: active = growth inhibition above about 70%; inactive = the rest.
Returns: one label drawn from 1 for active, 0 for inactive

Please review the following examples before continuing.
COC(=O)C1=C(C(=O)OC)C2OC1c1cc3ccccc3cc12    1
CC/C(=C\c1ccc(Cl)cc1)[N+](=O)[O-]    0
CC(=O)C(CN(C)C)C(c1ccccc1)c1c(O)c2ccccc2oc1=O (stereo not given)    0
CCOP(=O)(CC(C)P(=O)(OCC)OCC)OCC.C[CH2][Sn]([Cl])([Cl])[CH2]C (stereo not given)    1
[Cl][Sn]([c]1ccccc1)[c]1ccccc1    1
O=C(c1ccccc1)c1c(CC(O)c2ccncc2)n(C(=O)c2ccccc2)c2ccccc12 (stereo not given)    1

Request: Short answer needed: outcome of this test for O=C1C2CC(Cl)C(SSC3CC4C(=O)N(SC(Cl)(Cl)C(Cl)Cl)C(=O)C4CC3Cl)CC2C(=O)N1SC(Cl)(Cl)C(Cl)Cl (stereo not given) ?
Result: 1

Request: Short answer needed: outcome of this test for Nc1nc(N)c(-c2ccc(Cl)c(Cl)c2)c(CCc2ccc(CNC(=O)Nc3ccc(S(=O)(=O)F)cc3)cc2)n1 ?
Result: 0

Request: Short answer needed: outcome of this test for CCC[CH2][Sn]1([CH2]CCC)[O]C(=O)C(C(C)C)N=Cc2ccccc2[O]1 (stereo not given) ?
Result: 1

Request: Short answer needed: outcome of this test for O=C(O)Cc1ccc2c(c1)OCO2.[Ag] ?
Result: 1
